Known pKi of a selection of compounds
# Tested On: Histamine H2 receptor (Cavia porcellus, UniProt P47747)
# Sequence (P47747 whole entry): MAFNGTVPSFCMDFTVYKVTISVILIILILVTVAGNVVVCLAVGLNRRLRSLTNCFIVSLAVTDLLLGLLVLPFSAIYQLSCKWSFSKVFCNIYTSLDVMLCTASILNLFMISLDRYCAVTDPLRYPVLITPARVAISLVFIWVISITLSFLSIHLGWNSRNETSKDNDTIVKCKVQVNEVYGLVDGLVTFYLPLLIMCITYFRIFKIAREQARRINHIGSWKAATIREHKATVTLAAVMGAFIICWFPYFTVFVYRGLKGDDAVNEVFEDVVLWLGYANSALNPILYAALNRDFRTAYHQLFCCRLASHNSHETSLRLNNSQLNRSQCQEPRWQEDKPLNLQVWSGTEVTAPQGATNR
# Protocol Text: Inhibition of [125I]APT binding to H2 receptors in guinea pig cerebral membranes.
# Type: cell membranes
pKi: −log10 of the molar value.

Compound: N#CN/C(=N\CCNC(=O)c1ccc(N)cc1)NCCCOc1cccc(CN2CCCCC2)c1 [AMINOPOTENTIDINE]
Tested On: Histamine H2 receptor (Cavia porcellus, UniProt P47747)
pKi: 8.01

Compound: N#CN/C(=N\CCNC(=O)c1cccc(I)c1)NCCCCOc1cccc(CN2CCCCC2)c1
Tested On: Histamine H2 receptor (Cavia porcellus, UniProt P47747)
pKi: 8.28

Compound: N#CN=C(NCCCOc1cccc(CN2CCCCC2)c1)NCCNC(=O)c1cccc(I)c1
Tested On: Histamine H2 receptor (Cavia porcellus, UniProt P47747)
pKi: 8.58
